Reference for the values: PubChem BioAssay

The following compounds are listed with their measured inhibition values.
Experiment: growth suppression of yeast trafficking mutant, preliminary HTS, modulators of trafficking downstream of Golgi apparatus project, 1536-format plate, OD 615 nm (AID 637)
Conditions: yeast transport mutant growth, absorbance 615 nm, 18 h; stronger effect = higher value
Note: unit % is implicit; provide only the numeric part.

# annotated cases, reported inhibition shown
Requested read-out: inhibition. Entry: Cc1ccc2nc(/C(C#N)=N/O)[nH]c2c1
0

Requested read-out: inhibition. Entry: Cc1ccc(-c2nn[nH]n2)cc1
2.18

Requested read-out: inhibition. Entry: O=C(Nc1ccc(F)cc1)N(Cc1ccco1)Cc1cc2cc3c(cc2[nH]c1=O)OCO3
-12.8

Requested read-out: inhibition. Entry: O=C(Nc1ccccc1C(=O)N1CCOCC1)C1CCC(=O)N1C1CCCC1 (stereo unspecified)
-3.97

---
Requested read-out: inhibition. Entry: CCCCc1ccc(NC(=O)N[C@H](C(=O)O)C(C)C)cc1
-5.32

Requested read-out: inhibition. Entry: C(#Cc1ccccc1)Cn1nnc2ccccc21
4.33

Requested read-out: inhibition. Entry: CCc1nnc(NC(=O)c2ccc(S(=O)(=O)N(CC(C)C)CC(C)C)cc2)o1
0.66

Requested read-out: inhibition. Entry: COCC(=O)Nc1sc2c(c1C(=O)OC)CCC(C)C2 (stereo unspecified)
5.08

Requested read-out: inhibition. Entry: Cc1csc(NC(=O)Nc2cccc(Cl)c2)n1
-1.09

Requested read-out: inhibition. Entry: Cc1c(NC(=O)c2ccc(=O)oc2)c(=O)n(-c2ccccc2)n1C
-0.32

Requested read-out: inhibition. Entry: N#CC1=C(N)C(C#N)(C#N)[C@H](c2ccsc2)[C@H]2COCC=C12
2.58

----------
The following compounds are listed with their measured differential viability (reversal) values.
Experiment: reversal of MRP1-mediated doxorubicin resistance, pilot screen, H69AR cells, doxorubicin co-treatment (AID 601)
Details: H69AR cells + 2 uM doxorubicin, CellTiter-Glo, 72 h; at 10 µM; stronger effect = higher value
Note: unit % is implicit; provide only the numeric part.

# annotated cases, reported differential viability (reversal) shown
Requested read-out: differential viability (reversal). Entry: CCn1c(SCC(=O)Nc2cc(C)on2)nc2sc3c(c2c1=O)CCCC3
2.02

Requested read-out: differential viability (reversal). Entry: COC(=O)c1ccccc1NC(=O)C12CCC(C)(C(=O)O1)C2(C)C (stereo not given)
13.7

Requested read-out: differential viability (reversal). Entry: CCC(=O)N1CCc2cc(Br)cc(S(=O)(=O)C3(C(=O)OC)CC3)c21
8.17

Requested read-out: differential viability (reversal). Entry: Cc1cc(C)c(C#N)c(SCc2ccc(C#N)cc2)n1
-7.06

Requested read-out: differential viability (reversal). Entry: O=C(c1cnc2sccn2c1=O)N1CCc2ccccc2C1
7.95

Now examine the next entry.
Requested read-out: differential viability (reversal). Entry: CCc1nnc(NC(=O)CSc2nnc(-c3cc4ccccc4cc3O)n2CC)s1
1.08

----------
Test: growth suppression of yeast trafficking mutant, preliminary HTS, modulators of trafficking downstream of Golgi apparatus project, 1536-format plate, OD 615 nm (AID 637)
Conditions: yeast transport mutant growth, absorbance 615 nm, 18 h; stronger effect = higher value
The following compounds are listed with their measured inhibition values.
Note: unit % is implicit; provide only the numeric part.

# annotated cases, reported inhibition shown
Requested read-out: inhibition. Entry: N#CC1=C(N)N(c2ccccc2)C(c2ccco2)C1(C#N)C#N (stereo not given)
-2.54

Requested read-out: inhibition. Entry: Cn1c(=O)c2c(nc(SCC(=O)N3CCCc4ccccc43)n2C)n(C)c1=O
-2.73

Requested read-out: inhibition. Entry: Cc1ccc(N(Cc2ccco2)C(=O)c2cccc(S(=O)(=O)N(C)C)c2)cc1
-1

Requested read-out: inhibition. Entry: CCN(CC)CCCN1C(=O)C(=O)/C(=C(/O)c2ccc3c(c2)OCO3)C1c1ccccn1 (stereo not given)
0.32

Requested read-out: inhibition. Entry: CCOC(=O)c1ccc(N(CC(=O)NC2CCCC2)C(=O)CNC(=O)c2ccco2)cc1
-2.46

Requested read-out: inhibition. Entry: CN(C)c1nc(Oc2ccc(N)cc2)nc(N(C)C)n1
-2

---
Requested read-out: inhibition. Entry: CCCC(=O)N1CCN(c2ccc(NC(=O)c3ccc(Br)o3)cc2)CC1
-2.22

Requested read-out: inhibition. Entry: C=CCN=C1SCC(=O)N1S(=O)(=O)c1ccc(C)cc1
1.64

Requested read-out: inhibition. Entry: O=C(Nc1cccc(NC(=O)c2ccco2)c1)c1ccc2c(c1)OCO2
21.2

Requested read-out: inhibition. Entry: C=C1[C@@H](C)C2[C@H](Cc3ccccc3)NC(=O)[C@]23OC(=O)CC[C@H](O)CCC[C@H](C)C/C=C/[C@H]3[C@@H]1O (stereo not given in full)
0.67

----------
Assay: growth inhibitors of H69AR lung tumor, primary screen, human, duplicate replicates (AID 580);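 also: 100% = mean luminescence of untreated wells and 0% = no signal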
Details: H69AR lung tumor cells viability, ATP luminescence, 72 h; at 10 µM
Activity calls are given as the source filed them.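 The calls were made as follows: active = viability at or under a set limit in both replicates, limit being median viability minus 3 SD (cut at about 48% in these data, passing the limit was not always enough); inconclusive = at or under the limit in just one replicate; inactive = at or above the limit in both replicates.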
Pick one and only one: True (active), False (inactive)

Example entries begin here.
Outcome? CC(=O)Nc1ccc(-c2nn[nH]n2)cc1Cl
False

Outcome? Cc1ccc(C)c2[nH]c(=O)c(CCNC(=O)c3ccc(Br)o3)cc12
False

Outcome? CCC(C(=O)OCCN(CC)CC)c1ccccc1 (centres undefined)
False

Outcome? CCOc1ccc2nc(NC(=O)C(NS(=O)(=O)c3cccs3)C(C)C)sc2c1 (centres undefined)
False

Outcome? CC(=O)NCCC(=O)Nc1ccc(C)c(F)c1
False

Outcome? Cc1ccc(Nc2nc(N)nc(CN3CCN(Cc4ccc5c(c4)OCO5)CC3)n2)cc1
False

Outcome? CC(C)COc1ccc(C(=O)OCCN2CCOCC2)cc1
False

Outcome? Cc1cccc(N(C)C(=O)c2cc3cc4ccc(C)cc4nc3o2)c1
True

Outcome? Cc1cc(NC(=O)c2ccccc2)ncc1NC(=O)c1ccco1
False

Outcome? O=C(CCCCn1c(=O)[nH]c2ccsc2c1=O)NCc1cccnc1
False

---
Outcome? Nc1cc(C(=O)O)ccc1Nc1ccccc1
False

Outcome? COc1cccc(NC(=O)N2CCCC2C(=O)Nc2ccc3c(c2)OCO3)c1 (centres undefined)
False

Outcome? Cn1c(=O)[nH]c(=O)c2c1nc(N1CCc3ccccc3C1)n2CCSc1nc2ccccc2s1
False

Outcome? Cc1ccc(C)c(CSc2nnc(CCN)o2)c1
False

Outcome? COc1ccc(-c2nnc(SCC(=O)Nc3sc4c(c3C#N)CCC4)n2CC2CCCO2)cc1 (centres undefined)
False

Outcome? CCc1cccc2c3c([nH]c12)C(CC)(CC(=O)O)OCC3 (centres undefined)
False

Outcome? CCCN(CCO)Cc1cccc(Br)c1
False

Outcome? CC(C)N(C(=O)N1CCC(c2nc(-c3ccncc3)no2)CC1)C(C)C
False

Outcome? COc1ccc(Cn2c(=O)[nH]c3cc(C(=O)NCCCN4CCCC4)ccc3c2=O)cc1
False

----------
Test: reducers of endogenous Her2 protein level, primary screen, SKBR3 breast tumor cells, AlphaScreen, ATP viability (AID 461);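 also: percent of carrier control wells set as 100% viability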
Conditions: 18-24 h, measured here: SKBR3 viability, ATP luminescence, at 10 µM
Observed property: viability (%)
Note: unit % is implicit; provide only the numeric part.

Requested read-out: viability. Entry: O=C(CN1CCN(C2CCCCC2)CC1)Nc1ccccc1-c1ccccc1
90.5

Requested read-out: viability. Entry: Cc1sc2nc(SCC(=O)Nc3c(C)n(C)n(-c4ccccc4)c3=O)n(C)c(=O)c2c1C
102

Requested read-out: viability. Entry: CCCCc1nc2n[nH]c(N)c2c2c1CCCC2
138

Requested read-out: viability. Entry: COc1ccc(-c2nnc(SCC(=O)Nc3cc(C)on3)n2C)cc1OC
101

Requested read-out: viability. Entry: Cc1cc(NC(=O)C23CCC(C)(C(=O)O2)C3(C)C)no1 (configuration not stated)
108

Requested read-out: viability. Entry: COc1cc(C(Nc2ccc3c(c2)OCO3)C(=O)NC2CCCCC2)cc(OC)c1OC (configuration not stated)
74.5

---
Requested read-out: viability. Entry: Cc1ccc2c(c1)-c1c(cnn1CC(=O)Nc1ccccc1N1CCN(C)CC1)CO2
93.5

Requested read-out: viability. Entry: O=C(COC(=O)Cc1cccc(C(F)(F)F)c1)NCC1CCCO1 (configuration not stated)
94

Requested read-out: viability. Entry: CCOC(=O)CN1CC23C=CC(O2)C(C(=O)NCc2ccc(F)cc2)C3C1=O (configuration not stated)
88

Requested read-out: viability. Entry: O=C(CN(Cc1ccc(F)cc1)C(=O)Cn1nnc2ccccc21)NCC1CCCO1 (configuration not stated)
110

Requested read-out: viability. Entry: Cc1ccc2cc(CN(CC(C)C)C(=O)C3CCCO3)c(=O)[nH]c2c1 (configuration not stated)
95

Requested read-out: viability. Entry: COC(=O)c1ccccc1S(=O)(=O)N(Cc1cc2cc3c(cc2[nH]c1=O)OCO3)C1CCCCC1
83

Requested read-out: viability. Entry: OC(CN1CCN(c2ccccc2)CC1)c1ccc2c(c1)CCN2 (configuration not stated)
87.5

Requested read-out: viability. Entry: Cc1cc(C(=O)CSCCCn2c(=O)[nH]c3ccccc32)c(C)n1C
105

Requested read-out: viability. Entry: N#Cc1nc(-c2cccs2)oc1NCc1ccc(Cl)cc1
111

Requested read-out: viability. Entry: N#CC(C(=O)C1CCCCC1)c1nc2ccccc2[nH]1 (configuration not stated)
91.5

Requested read-out: viability. Entry: CC1Cc2ccccc2N1C(=O)CSc1nc2ccccc2n1CC(=O)N1CCOCC1 (configuration not stated)
97
